experimental_system: His-Tau40P301L Tau (UniProt P10636-8 1-441)
Sequence (P10636 other isoform, or with tags, fused parts or gaps limits assumed): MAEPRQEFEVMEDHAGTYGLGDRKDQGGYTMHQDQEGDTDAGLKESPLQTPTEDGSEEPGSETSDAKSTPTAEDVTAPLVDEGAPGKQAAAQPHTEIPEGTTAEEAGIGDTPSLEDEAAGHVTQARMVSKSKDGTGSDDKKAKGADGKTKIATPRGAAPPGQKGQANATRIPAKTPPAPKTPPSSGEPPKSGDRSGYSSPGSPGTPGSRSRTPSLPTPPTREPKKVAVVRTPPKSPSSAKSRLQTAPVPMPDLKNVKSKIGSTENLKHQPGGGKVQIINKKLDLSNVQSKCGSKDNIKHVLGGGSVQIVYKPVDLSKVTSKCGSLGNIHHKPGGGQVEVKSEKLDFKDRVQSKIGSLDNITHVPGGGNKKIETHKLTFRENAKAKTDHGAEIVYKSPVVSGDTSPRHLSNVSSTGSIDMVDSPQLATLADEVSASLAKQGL
method_notes: cell-based or functional assay
Square brackets hold non-standard residues; d marks the D form. Ends that are not written are not given here. hArg = N=C(N)NCCCC[C@H](N)C(=O)O; Orn = NCCC[C@H](N)C(=O)O
Each entry below lists one item and its recorded IC50 (µM), Tau40 assay (ThT) value.

{"binder": "WY[Orn]IWI[Orn]W [WYOIWIOW]", "IC50 (µM), Tau40 assay (ThT)": 1.92}
{"binder": "WLKVQVRLW", "IC50 (µM), Tau40 assay (ThT)": 1.86}
{"binder": "WY[hArg]L[hArg]I[hArg]W [WY(hR)L(hR)I(hR)W]", "IC50 (µM), Tau40 assay (ThT)": 1.74}
{"binder": "WKIHIWWR", "IC50 (µM), Tau40 assay (ThT)": 5.75}
{"binder": "WRILIRYW", "IC50 (µM), Tau40 assay (ThT)": 14.6}
{"binder": "FRIKLRW", "IC50 (µM), Tau40 assay (ThT)": 2.6}
{"binder": "KIRLYWW", "IC50 (µM), Tau40 assay (ThT)": 5.73}
{"binder": "YKLHIRHW", "IC50 (µM), Tau40 assay (ThT)": 5.72}
{"binder": "WRARIRW", "IC50 (µM), Tau40 assay (ThT)": 3.7}
{"binder": "RIRLYWW", "IC50 (µM), Tau40 assay (ThT)": 1.74}
{"binder": "RIWLRLW", "IC50 (µM), Tau40 assay (ThT)": 2.14}
{"binder": "LRIRIRL", "IC50 (µM), Tau40 assay (ThT)": 1.82}
{"binder": "WRFRLYLR", "IC50 (µM), Tau40 assay (ThT)": 47}
{"binder": "IRIWLW", "IC50 (µM), Tau40 assay (ThT)": 4.08}
{"binder": "WIRYWIRW", "IC50 (µM), Tau40 assay (ThT)": 2.42}
{"binder": "YRIRLRY", "IC50 (µM), Tau40 assay (ThT)": 1.08}
